// data source = patent US20120178116A1

target: complex of SEQ ID NO: 12 and SEQ ID NO: 16 (MBP-AK / MBP-AKA) (Ustilago maydis); experiment: IMAP fluorescence polarization assay, inhibitor measurement of aurora kinase activity
Sequence (A0A0D1E894 entry or part of it, one chain of several): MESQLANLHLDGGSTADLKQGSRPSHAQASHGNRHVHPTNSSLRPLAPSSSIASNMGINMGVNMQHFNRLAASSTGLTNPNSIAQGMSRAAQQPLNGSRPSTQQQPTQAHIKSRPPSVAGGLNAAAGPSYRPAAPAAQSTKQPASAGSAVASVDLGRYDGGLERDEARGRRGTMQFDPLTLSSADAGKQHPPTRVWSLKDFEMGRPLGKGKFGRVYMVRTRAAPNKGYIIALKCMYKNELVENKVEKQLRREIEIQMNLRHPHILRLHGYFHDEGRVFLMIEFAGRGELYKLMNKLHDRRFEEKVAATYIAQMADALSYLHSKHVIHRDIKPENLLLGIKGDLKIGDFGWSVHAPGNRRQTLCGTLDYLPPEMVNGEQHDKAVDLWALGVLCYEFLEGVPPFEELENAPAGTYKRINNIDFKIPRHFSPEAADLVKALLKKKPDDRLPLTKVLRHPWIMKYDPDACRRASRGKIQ
ASSAY METRIC: pIC50
Give bare numbers, as −log10 of the molar value.

Name the recorded pIC50 for "CN[C@@H]1C[C@H]2O[C@@](C)([C@@H]1OC)n1c3ccccc3c3c4c(c5c6ccccc6n2c5c31)C(=O)NC4" .
8.68
